- Tgt: Procathepsin L (Homo sapiens)
- Sequence (P07711 whole entry): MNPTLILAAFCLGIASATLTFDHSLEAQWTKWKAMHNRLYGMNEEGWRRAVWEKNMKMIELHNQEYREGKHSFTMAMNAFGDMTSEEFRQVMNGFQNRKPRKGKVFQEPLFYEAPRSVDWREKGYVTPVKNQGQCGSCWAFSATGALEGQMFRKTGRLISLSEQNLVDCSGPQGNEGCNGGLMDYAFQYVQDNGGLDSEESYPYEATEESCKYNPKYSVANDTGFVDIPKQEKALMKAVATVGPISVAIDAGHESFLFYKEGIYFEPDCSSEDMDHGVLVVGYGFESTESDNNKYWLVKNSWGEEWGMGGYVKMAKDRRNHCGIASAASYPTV
pIC50: −log10 of the molar value.
Property label: pIC50

compound="CCCCCCCCCC(C)CCC(C)C(=O)O (stereo unspecified)" value_reported=3.66

###

- Tgt: Programmed cell death protein 1/Programmed cell death 1 ligand 1 (Homo sapiens, UniProt Q15116+Q9NZQ7)
- Sequence (Q15116 whole entry): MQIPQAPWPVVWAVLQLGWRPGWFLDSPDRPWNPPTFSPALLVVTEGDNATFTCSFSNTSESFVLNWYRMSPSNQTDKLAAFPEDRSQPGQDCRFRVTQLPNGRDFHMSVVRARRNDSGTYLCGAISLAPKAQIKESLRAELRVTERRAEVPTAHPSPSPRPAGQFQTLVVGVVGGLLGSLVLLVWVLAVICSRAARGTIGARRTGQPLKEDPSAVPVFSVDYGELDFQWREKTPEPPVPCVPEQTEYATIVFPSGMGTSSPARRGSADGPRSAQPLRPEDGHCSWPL
- Sequence (Q9NZQ7 whole entry): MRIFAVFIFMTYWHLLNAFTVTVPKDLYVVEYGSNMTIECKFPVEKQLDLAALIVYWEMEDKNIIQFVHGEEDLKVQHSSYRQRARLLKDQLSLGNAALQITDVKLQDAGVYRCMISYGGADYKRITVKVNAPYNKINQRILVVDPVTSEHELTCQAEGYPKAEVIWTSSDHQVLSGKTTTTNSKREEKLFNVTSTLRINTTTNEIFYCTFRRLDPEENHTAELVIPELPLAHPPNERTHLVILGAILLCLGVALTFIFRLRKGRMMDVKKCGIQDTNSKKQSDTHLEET
- Experimental protocol: Inhibition of PD-1/PD-L1 (unknown origin) protein protein interaction
pIC50: −log10 of the molar value.
Property label: pIC50

molecule="CCCCCCCCCC(C)CCC(C)C(=O)O (stereo unspecified)" value_reported="< 3.41"

###

Attribute: pIC50
- Tgt: Replicase polyprotein 1ab (Severe acute respiratory syndrome coronavirus 2, UniProt P0DTD1)
pIC50: −log10 of the molar value.
Property label: pIC50

compound="CCCCCCCCCC(C)CCC(C)C(=O)OCc1ccccc1 (configuration not stated)" value_reported="< 3.54"
compound="CCCCCCCCCC(C)CCC(C)C(=O)OC (configuration not stated)" value_reported="< 3.43"

Where these numbers come from: ChEMBL document CHEMBL5532685
